Cited source: paper PMC6133161

# Tested on: C. inconspicua
# protocol: Broth microdilution MIC/MFC, clinical isolate
# Format: cell-based
# experimentalSetup: Pichia inconspicua; C. inconspicua clinical strain; read-out: MIC
# Experimental: In the study of antifungal activity of the compounds 3a–3j, 15 clinical strains of different species of yeasts from Candida species, namely C. albicans, C. dubliniensis C. famata, C. inconspicua, C. krusei, C. tropicalis, C. glabrata, C. lambica, C. kefyr, C. lusitaniae, C. parapsilosis, C. guilliermondii, C. lusitaniae, C. pulcherrima and C. sake were also used. […] MFC was determined by removing the culture using for MIC determinations from each well and spotting onto appropriate agar medium. […]
Rule for this label: MET means MIC is less than 0.2 µg/mL; NOT MET means MIC is at least 0.2 µg/mL.

Task: Identify whether the compound Brc1ccc(-c2csc(N/N=C/C3CC3)n2)cc1 [Compound 3b] records MIC below 0.2 µg/mL.
Output: NOT MET

Task: Please answer likewise for [N-]=[N+]=Nc1ccc(-c2csc(N/N=C/C3CC3)n2)cc1 [Compound 3i]
Output: NOT MET

Task: Thanks! And Fc1ccc(-c2csc(N/N=C/C3CC3)n2)cc1 [Compound 3a] ?
Output: NOT MET

Task: Can you handle Fc1ccc(-c2csc(N/N=C/C3CC3)n2)c(F)c1 [Compound 3g] next?
Output: NOT MET

Task: What do you get for N#Cc1ccc(-c2csc(N/N=C/C3CC3)n2)cc1 [Compound 3h] ?
Output: NOT MET

Task: Another compound: COc1ccc(-c2csc(N/N=C/C3CC3)n2)cc1 [Compound 3f]
Output: MET

Task: Then this compound: Cc1ccc(-c2csc(N/N=C/C3CC3)n2)cc1 [Compound 3d]
Output: MET

Task: Could you do the same for O=[N+]([O-])c1ccc(-c2csc(N/N=C/C3CC3)n2)cc1 [Compound 3j] , please?
Output: NOT MET

Task: Then Clc1ccc(-c2csc(N/N=C/C3CC3)n2)cc1 [Compound 3c] ?
Output: NOT MET
